Data credit: ChEMBL document CHEMBL4184118

Molecular target: CRY2/PER2 (Homo sapiens, UniProt O15055+Q49AN0)
Sequence (O15055 whole entry): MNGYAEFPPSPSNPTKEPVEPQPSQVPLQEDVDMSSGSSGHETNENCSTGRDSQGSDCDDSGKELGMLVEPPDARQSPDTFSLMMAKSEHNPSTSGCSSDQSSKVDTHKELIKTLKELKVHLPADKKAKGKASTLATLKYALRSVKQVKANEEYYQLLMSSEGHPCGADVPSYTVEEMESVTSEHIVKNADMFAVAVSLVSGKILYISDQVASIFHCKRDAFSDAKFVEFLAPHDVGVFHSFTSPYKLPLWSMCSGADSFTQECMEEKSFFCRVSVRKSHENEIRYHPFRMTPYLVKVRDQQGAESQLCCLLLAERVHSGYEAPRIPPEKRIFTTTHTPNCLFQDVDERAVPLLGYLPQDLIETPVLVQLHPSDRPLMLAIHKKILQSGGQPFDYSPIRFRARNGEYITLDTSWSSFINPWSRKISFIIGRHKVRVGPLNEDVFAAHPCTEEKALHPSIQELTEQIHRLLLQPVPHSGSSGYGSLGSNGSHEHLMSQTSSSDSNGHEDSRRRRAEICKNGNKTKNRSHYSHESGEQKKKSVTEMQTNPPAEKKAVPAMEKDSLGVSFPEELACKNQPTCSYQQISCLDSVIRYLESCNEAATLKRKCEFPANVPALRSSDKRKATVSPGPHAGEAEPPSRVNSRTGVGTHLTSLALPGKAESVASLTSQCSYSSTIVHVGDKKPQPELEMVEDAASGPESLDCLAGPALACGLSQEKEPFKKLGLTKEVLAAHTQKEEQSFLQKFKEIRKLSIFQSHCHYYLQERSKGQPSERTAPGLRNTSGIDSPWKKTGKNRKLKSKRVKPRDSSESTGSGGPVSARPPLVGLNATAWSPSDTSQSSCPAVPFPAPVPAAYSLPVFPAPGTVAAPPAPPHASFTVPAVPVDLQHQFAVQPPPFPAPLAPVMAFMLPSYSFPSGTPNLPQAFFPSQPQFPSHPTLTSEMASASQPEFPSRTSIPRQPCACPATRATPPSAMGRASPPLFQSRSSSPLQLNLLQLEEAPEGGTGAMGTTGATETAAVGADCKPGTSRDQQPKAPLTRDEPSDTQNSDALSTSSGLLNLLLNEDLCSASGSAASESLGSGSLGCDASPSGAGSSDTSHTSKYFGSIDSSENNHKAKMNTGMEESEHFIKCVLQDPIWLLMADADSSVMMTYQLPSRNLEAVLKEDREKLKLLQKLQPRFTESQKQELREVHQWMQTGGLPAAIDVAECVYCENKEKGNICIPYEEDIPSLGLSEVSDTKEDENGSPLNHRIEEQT
Sequence (Q49AN0 whole entry): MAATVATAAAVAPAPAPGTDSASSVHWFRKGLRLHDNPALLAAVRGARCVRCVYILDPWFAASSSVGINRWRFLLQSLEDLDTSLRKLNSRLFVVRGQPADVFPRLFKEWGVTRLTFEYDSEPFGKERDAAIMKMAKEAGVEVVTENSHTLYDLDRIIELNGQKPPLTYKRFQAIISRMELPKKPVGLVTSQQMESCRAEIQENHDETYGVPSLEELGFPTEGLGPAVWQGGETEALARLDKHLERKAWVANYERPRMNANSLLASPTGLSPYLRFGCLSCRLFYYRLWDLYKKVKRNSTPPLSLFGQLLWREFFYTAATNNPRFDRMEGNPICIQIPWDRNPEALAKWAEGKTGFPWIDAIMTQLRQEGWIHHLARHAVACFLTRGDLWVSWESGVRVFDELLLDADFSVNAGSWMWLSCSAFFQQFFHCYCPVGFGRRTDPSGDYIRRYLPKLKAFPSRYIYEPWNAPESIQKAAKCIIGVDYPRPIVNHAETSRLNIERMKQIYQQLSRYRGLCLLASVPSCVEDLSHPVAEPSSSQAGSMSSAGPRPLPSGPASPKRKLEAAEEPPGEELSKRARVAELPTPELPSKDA
Test: Modulation activity at CRY2/PER2 in human U2OS cells harboring per2-dLuc assessed as activation of per2 activity measured every 100 mins for 5 days by luciferase reporter gene assay
Format: cell-based
pEC50: −log10 of the molar value.
Entries and their pEC50
Measured Metric: pEC50

- Compound: "CC1CCNC(=O)N1CC(O)Cn1c2ccc(F)cc2c2cc(F)ccc21 (stereo unspecified)"
  Measured Metric: "pEC50"
  Assay Value: 6.13
- Compound: "O=C1CCCCN1CC(O)Cn1c2ccc(F)cc2c2cc(F)ccc21 (stereo unspecified)"
  Measured Metric: "pEC50"
  Assay Value: 6.72
- Compound: "CCN1CCN(CC(O)Cn2c3ccc(F)cc3c3cc(F)ccc32)C1=O (stereo unspecified)"
  Measured Metric: "pEC50"
  Assay Value: 5.98
- Compound: "CCC1CCN(CC(O)Cn2c3ccc(F)cc3c3cc(F)ccc32)C1=O (stereo unspecified)"
  Measured Metric: "pEC50"
  Assay Value: 6.38
- Compound: "CC(C)N1CCN(CC(O)Cn2c3ccc(F)cc3c3cc(F)ccc32)C1=O (stereo unspecified)"
  Measured Metric: "pEC50"
  Assay Value: 6.22
- Compound: "CC1(C)CCN(CC(O)Cn2c3ccc(F)cc3c3cc(F)ccc32)C1=O (stereo unspecified)"
  Measured Metric: "pEC50"
  Assay Value: 6.79

----------
Test: Total Cmax in db/db mouse at 30 mg/kg, po qd after 1 to 24 hrs
Assay type: ADME, organism-based
Design: dose 30 mg/kg, route oral
Details: in vivo
Entries and their Cmax
Measured Metric: Cmax (nM)

- Molecule: "O=C1NCCCN1CC(O)Cn1c2ccc(F)cc2c2cc(F)ccc21 (centres undefined)"
  Measured Metric: "Cmax"
  Assay Value: 1020
- Molecule: "O=C1C(F)CCN1CC(O)Cn1c2ccc(F)cc2c2cc(F)ccc21 (centres undefined)"
  Measured Metric: "Cmax"
  Assay Value: 1010
- Molecule: "CC1CN(CC(O)Cn2c3ccc(F)cc3c3cc(F)ccc32)C(=O)N1 (centres undefined)"
  Measured Metric: "Cmax"
  Assay Value: 557
- Molecule: "COC1CCCN(CC(O)Cn2c3ccc(F)cc3c3cc(F)ccc32)C1=O (centres undefined)"
  Measured Metric: "Cmax"
  Assay Value: 235
